Reference source for all entries: PubChem BioAssay (NCI)

System: UO-31 renal
Test: NCI-60 one-dose screen, 48 h
Conditions: 10 µM unless noted
This is part of a sample that, as a whole, favours compounds with a hit. Of some 83,000 tested, about 20% had one in any assay. Activity calls are given as the source filed them. Rule for the calls: active = growth percent below 10; inactive = the rest.
The reply should name one outcome from active, inactive

INSERT INTO assay_data (smi, discrete_label) VALUES
  ('CCOC(=O)CSc1nnc(-c2cc3c([nH]c4ccccc43)c(-c3cccc(O)c3)n2)n1-c1ccc(C)cc1', 'inactive'),
  ('CCCCCCCCCCCCCCCC(=O)NS(=O)(=O)OC[C@H]1O[C@@H](n2cnc3c(N)ncnc32)[C@H](O)[C@@H]1O', 'active'),
  ('Clc1ccc(CN2COc3c(ccc4cccnc34)C2)cc1Cl', 'active'),
  ('CC1(C)N=C(N)N=C(N)N1c1ccc(F)c(C(F)(F)F)c1', 'inactive'),
  ('O=C1CN(CCN2CC(=O)NC(=O)C2)CC(=O)N1', 'inactive');

Asked: // return assay outcome for Oc1ccccc1/C=N/c1ccccn1
Given back: inactive
